- EXPERIMENT_NOTES: AUC (0 to infinity) in Sprague-Dawley rat at 5 mg/kg, po via gavage by HPLC/MS analysis
- Assay type: ADME, organism-based
- Design: dose 5 mg/kg, route oral, time infinity
- CONDITIONS_USED: in vivo
VALUE_TYPE: AUC(0-inf)
Quick note: number first, unit second.

(Q) Name the reported AUC(0-inf) value associated with the compound Cc1c(Oc2cnc(C(=O)N3CC(C)(O)C3)cn2)ccc2c1B(O)OC2
(A) 20800 ng·h/mL

###

- EXPERIMENT_NOTES: Clearance in Beagle dog at 5 mg/kg, iv by HPLC/MS analysis
- Format: ADME, organism-based, Canis lupus familiaris
- CONDITIONS_USED: in vivo
VALUE_TYPE: clearance (mL/min/kg)
Just the number in mL/min/kg, nothing appended.

(Q) Need clearance, item Cc1c(Oc2cnc(C(=O)N3CC(C)(O)C3)cn2)ccc2c1B(O)OC2
(A) 0.505

###

- Tested on: Plasmodium berghei
- EXPERIMENT_NOTES: Antimalarial activity against Plasmodium berghei infected in Swiss Webster mouse assessed as mouse survival rate at 100 mg/kg administered once daily via oral gavage for 4 consecutive days beginning 1 hr after infection measured on day 14 post infection relative to control
- Assay type: functional
Give measured survival at 100 mg/kg for each item. Keep answers brief.

(Q) Query (molecule): Cc1c(Oc2cnc(C(=O)N3CC(O)(C(C)C)C3)cn2)ccc2c1B(O)OC2 ; field requested: survival at 100 mg/kg
(A) 100%

(Q) // repeat for CCC[C@H](CO)NC(=O)c1cnc(Oc2ccc3c(c2C)B(O)OC3)cn1 and report
(A) 0%

(Q) # iterate: Cc1c(Oc2cnc(C(=O)N3CC(O)(C(F)(F)F)C3)cn2)ccc2c1B(O)OC2
(A) 100%

(Q) What do we get for Cc1c(Oc2cnc(C(=O)N3CC(C)(O)C3)cn2)ccc2c1B(O)OC2 ?
(A) 60%

(Q) Okay, and Cc1c(Oc2cnc(C(=O)N[C@@H](CO)C(C)C)cn2)ccc2c1B(O)OC2 ?
(A) 40%

(Q) // same read-out, input: CCC1(O)CN(C(=O)c2cnc(Oc3ccc4c(c3C)B(O)OC4)cn2)C1
(A) 0%

(Q) Can you handle Cc1c(Oc2cnc(C(=O)N3CC(O)(C4CC4)C3)cn2)ccc2c1B(O)OC2 next?
(A) 0%

(Q) Now consider CCCC1(O)CN(C(=O)c2cnc(Oc3ccc4c(c3C)B(O)OC4)cn2)C1 and answer again.
(A) 80%

###

- EXPERIMENT_NOTES: Volume of distribution at steady state in Beagle dog at 5 mg/kg, iv by HPLC/MS analysis
- Format: ADME, organism-based, Canis lupus familiaris
- CONDITIONS_USED: in vivo, read-out: Vdss
VALUE_TYPE: Vd (L/kg)
Response body: numeric value in L/kg, unit text excluded.

(Q) What value of measured Vd is listed for Cc1c(Oc2cnc(C(=O)N3CC(C)(O)C3)cn2)ccc2c1B(O)OC2 ?
(A) 0.29

###

What ED90 was measured for each of the following?
- Tested on: Plasmodium falciparum
- EXPERIMENT_NOTES: Antimalarial activity against Plasmodium falciparum 3D7 0087/N9 infected in NOD/SCID IL2R gamma null mouse assessed as reduction in parasitemia administered once daily via oral gavage for 4 consecutive days measured on day 4 post infection
- Format: functional
- CONDITIONS_USED: 3D7 0087/N9, po, 96 h
Record the value in mg/kg, omitting the unit from your answer.

(Q) Look at this compound and give its reported ED90. CCC1(O)CN(C(=O)c2cnc(Oc3ccc4c(c3C)B(O)OC4)cn2)C1
(A) 0.84

(Q) Again, but for CCC[C@H](CO)NC(=O)c1cnc(Oc2ccc3c(c2C)B(O)OC3)cn1
(A) 2.5

(Q) Same read-out for Cc1c(Oc2cnc(C(=O)N3CC(C)(O)C3)cn2)ccc2c1B(O)OC2 ?
(A) 0.85

###

- EXPERIMENT_NOTES: Oral bioavailability in Beagle dog at 5 mg/kg by HPLC/MS analysis
- Format: ADME, organism-based, Canis lupus familiaris
- CONDITIONS_USED: in vivo
VALUE_TYPE: bioavailability (%)
Supply the numeric figure in %, leaving out any unit text.

(Q) Need bioavailability of Cc1c(Oc2cnc(C(=O)N3CC(C)(O)C3)cn2)ccc2c1B(O)OC2 , thanks.
(A) 127

###

- EXPERIMENT_NOTES: Terminal half life in CD1 mouse at 5 mg/kg, po via gavage by HPLC/MS analysis
- Type: ADME, organism-based
- CONDITIONS_USED: in vivo, read-out: beta t1/2 (converted)
Kindly state half-life for each of the entries shown.
Give the value in h but do not write h after it.

(Q) // half-life lookup, key: Cc1c(Oc2cnc(C(=O)N3CC(C)(O)C3)cn2)ccc2c1B(O)OC2
(A) 6.8

(Q) Cool, now CCC[C@H](CO)NC(=O)c1cnc(Oc2ccc3c(c2C)B(O)OC3)cn1
(A) 4.5

(Q) Do the same for Cc1c(Oc2cnc(C(=O)NCCO)cn2)ccc2c1B(O)OC2 please
(A) 3

(Q) Record: Cc1c(Oc2cnc(C(=O)NC(C)CO)cn2)ccc2c1B(O)OC2 (stereo not given)
(A) 2.7

(Q) Also need Cc1c(Oc2cnc(C(=O)N[C@@H](CO)CC(F)(F)F)cn2)ccc2c1B(O)OC2 , thanks.
(A) 3

###

- EXPERIMENT_NOTES: Tmax in Beagle dog plasma at 5 mg/kg, po via gavage by HPLC/MS analysis
- Assay type: ADME, organism-based, Canis lupus familiaris
VALUE_TYPE: Tmax
Report field: quantity (unit follows the number).

(Q) Could you tell me which Tmax is on file for Cc1c(Oc2cnc(C(=O)N3CC(C)(O)C3)cn2)ccc2c1B(O)OC2 ?
(A) 1.2 h

###

- EXPERIMENT_NOTES: Terminal half life in Beagle dog at 5 mg/kg, iv by HPLC/MS analysis
- Assay type: ADME, organism-based, Canis lupus familiaris
- CONDITIONS_USED: in vivo, read-out: beta t1/2 (converted)
VALUE_TYPE: half-life
The answer consists of two parts: a number and, after it, its unit.

(Q) For Cc1c(Oc2cnc(C(=O)N3CC(C)(O)C3)cn2)ccc2c1B(O)OC2 , what is its reported half-life?
(A) 6.9 h

###

Answer each item with its documented survival at 100 mg/kg.
- System: Plasmodium berghei
- EXPERIMENT_NOTES: Antimalarial activity against Plasmodium berghei infected in Swiss Webster mouse assessed as mouse survival rate at 100 mg/kg administered once daily via oral gavage for 4 consecutive days beginning 1 hr after infection measured on day 11 post infection relative to control
- Format: functional
Field format: number, assumed %, no unit text.

(Q) Report survival at 100 mg/kg for Cc1c(Oc2cnc(C(=O)N[C@@H](CO)CC(F)(F)F)cn2)ccc2c1B(O)OC2 please.
(A) 0

(Q) How about Cc1c(Oc2cnc(C(=O)N3CC(O)(C(F)(F)F)C3)cn2)ccc2c1B(O)OC2 ?
(A) 100

(Q) Entry to check: CCCC1(O)CN(C(=O)c2cnc(Oc3ccc4c(c3C)B(O)OC4)cn2)C1
(A) 100

(Q) Further, for Cc1c(Oc2cnc(C(=O)NC(C)CO)cn2)ccc2c1B(O)OC2 (stereo not given) ?
(A) 40

(Q) Now give it for Cc1c(Oc2cnc(C(=O)N3CC(O)(C(C)C)C3)cn2)ccc2c1B(O)OC2 too.
(A) 100

(Q) Another molecule to check: CCC[C@H](CO)NC(=O)c1cnc(Oc2ccc3c(c2C)B(O)OC3)cn1
(A) 20

(Q) Follow-up item: Cc1c(Oc2cnc(C(=O)N[C@@H](CO)C(C)C)cn2)ccc2c1B(O)OC2
(A) 40

(Q) Now give it for Cc1c(Oc2cnc(C(=O)N3CC(O)(C4CC4)C3)cn2)ccc2c1B(O)OC2 too.
(A) 100

(Q) Would you kindly repeat that for CCC1(O)CN(C(=O)c2cnc(Oc3ccc4c(c3C)B(O)OC4)cn2)C1 ?
(A) 100

(Q) Next molecule up: Cc1c(Oc2cnc(C(=O)N3CC(C)(O)C3)cn2)ccc2c1B(O)OC2
(A) 100

###

- EXPERIMENT_NOTES: AUC (0 to infinity) in CD1 mouse at 5 mg/kg, po via gavage by HPLC/MS analysis
- Type: ADME, organism-based
- Set-up: dose 5 mg/kg, time infinity, route oral
- CONDITIONS_USED: in vivo
Output True for AUC(0-inf) not less than 20000 ng·h/mL; output False otherwise.

(Q) Entry Cc1c(Oc2cnc(C(=O)NCCO)cn2)ccc2c1B(O)OC2 : is its AUC(0-inf) no less than 20000 ng·h/mL?
(A) True

(Q) What do you get for Cc1c(Oc2cnc(C(=O)N[C@@H](CO)CC(F)(F)F)cn2)ccc2c1B(O)OC2 ?
(A) False

(Q) Moving on to Cc1c(Oc2cnc(C(=O)NC(C)CO)cn2)ccc2c1B(O)OC2 (stereo not given)
(A) True

(Q) And what about the molecule CCC[C@H](CO)NC(=O)c1cnc(Oc2ccc3c(c2C)B(O)OC3)cn1 ?
(A) True

(Q) Same again, this time with Cc1c(Oc2cnc(C(=O)N3CC(C)(O)C3)cn2)ccc2c1B(O)OC2
(A) True
